Target: T1, human SIRPα v1-Fc (SIRPα1 extracellular domain fused to human IGHG1_Fc) (human, UniProt P78324 31-373; P0DOX5 223-449 = IgG part)
T1 construct: also called V1 (e.g. SIRPα1); SIRPα V1: DLN
Test: BLI Octet, antigen-Fc on biosensor;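 also: antigen captured on the biosensor tip and then immersed in solutions of the test antibodies, which act as the analyte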
endpointName: pKd
// field semantics: pKd = negative decimal log of concentration (mol/L)

Some binders with recorded pKd:
binder="SIRPAB-10 (antibody, human IgG1, kappa, V domains shown) VH: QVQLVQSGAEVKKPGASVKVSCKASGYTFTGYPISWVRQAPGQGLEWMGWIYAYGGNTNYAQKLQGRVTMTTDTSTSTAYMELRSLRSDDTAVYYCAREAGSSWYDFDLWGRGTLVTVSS VL: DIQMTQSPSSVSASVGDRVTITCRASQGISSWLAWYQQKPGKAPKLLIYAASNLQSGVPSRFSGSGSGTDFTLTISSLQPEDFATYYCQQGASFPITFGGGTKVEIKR" endpointname=pKd observedresult=9.60
binder="SIRPAB-4 (antibody, human IgG1, kappa, V domains shown) VH: QVQLQESGPGLVKPSQTLSLTCTVSGGSISSGSPYWSWIRQHPGKGLEWIGYIYASGFTYYNPSLKSRVTISVDTSKNQFSLKLSSVTAADTAVYYCAREGYHSGMDVWGQGTTVTVSS VL: DIQMTQSPSSLSASVGDRVTITCQASQDISNYLNWYQQKPGKAPKLLIYDASNLATGVPSRFSGSGSGTDFTFTISSLQPEDIATYYCQQFAYLPWTFGGGTKVEIKR" endpointname=pKd observedresult=9.35

Here is another binder to look at.
Briefly, pKd measured for SIRPAB-13 (antibody, human IgG1, kappa, V domains shown) VH: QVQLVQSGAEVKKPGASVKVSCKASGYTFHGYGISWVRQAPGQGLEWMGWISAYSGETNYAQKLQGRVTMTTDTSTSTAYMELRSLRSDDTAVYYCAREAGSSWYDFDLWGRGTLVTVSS VL: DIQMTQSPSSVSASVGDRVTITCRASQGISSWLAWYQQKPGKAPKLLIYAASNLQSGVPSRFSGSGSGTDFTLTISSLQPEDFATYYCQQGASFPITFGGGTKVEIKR : 8.78
